Value source: ChEMBL document CHEMBL1124660

target: Aldo-keto reductase family 1 member B1 (Rattus norvegicus); test: Inhibition of aldose reductase from rat lens. Value ranges from 5 - 97
pIC50: −log10 of the molar value.
reported_endpoint: pIC50

INSERT INTO results (compound_smiles, result_value) VALUES
  ('CC(=O)N(CC(=O)O)c1ccccc1', 4.68);

###

molecular target: Aldo-keto reductase family 1 member B1 (Rattus norvegicus); test: Inhibition of aldose reductase from rat lens. Value ranges from 280 - 490
pIC50: −log10 of the molar value.
reported_endpoint: pIC50

INSERT INTO measurements (compound, reported_endpoint, result_value) VALUES
  ('O=C(O)CNC(=O)c1ccccc1 [HIPPURIC ACID]', 'pIC50', 3.48);
